B1: Hairpin Ribozyme (parent)
chain: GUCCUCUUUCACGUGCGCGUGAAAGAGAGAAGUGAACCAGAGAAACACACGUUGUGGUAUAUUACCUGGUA

Variants of: B1
RUN DESCRIPTION: self-cleavage, relative activity (ratio to wild type); higher = more cleavage; co-transcriptional
Measured self-cleavage, listed per entry for reference.

# example entries with known answers
[
  {
    "SEQ TEXT": "GUCCUCUUUCACGUGCGCGUGACAGAGAGAAGCGAACCAGAGAAACACACGUUGUGGUAUAUUACCUGGUA [A23C U33C]",
    "self-cleavage": 0.307
  },
  {
    "SEQ TEXT": "GUUCCCUUUCACGUGCGCGUGAAAGAGAGAAGUGAACCAGAGAAACACACGUUGUGGUAUAUUACCUGGUA [C3U U5C]",
    "self-cleavage": 0.299
  },
  {
    "SEQ TEXT": "GUCCUCUUUCACGUGCGCGUGAAAGAGAGAAGUGAACCUGAGAAACACACGUUGUGGUAUAUUACCUGCUA [A39U G69C]",
    "self-cleavage": 0.073
  }
]

Query variant follows.
Exam item: Endpoint output: self-cleavage of GUCCUCUUUCACGUGCGCGUGCAAGUGAGAAGUGAACCAGAGAAACACACGUUGUGGUAUAUUACCUGGUA [A22C A26U] . Value?
Marked response: 0.429
